In this section, each of the compounds is paired with its reported melting point.
Measured property: melting point

[[record]]
compound = "CC1NC(=O)NN=C1c1ccccc1O (stereo not given)"
measured_value = "257 to 261 °C"

[[record]]
compound = "CC(=O)Oc1cc(Cl)c(Cl)c(Cl)c1N1CC(O)CC1=O (stereo not given)"
measured_value = "84 to 86 °C"

[[record]]
compound = "CN1c2cscc2C(=O)N(CCN2CCCC2)c2ccccc21"
measured_value = "139 to 141 °C"

[[record]]
compound = "COc1ccc(-c2ccc3c(c2)C=C(C(=O)Nc2ccc(CN(C)C4CCC(=O)CC4)cc2)CCS3(=O)=O)cc1"
measured_value = "214 to 218 °C"

[[record]]
compound = "CCCCc1nc2cccc(C(=O)OC)c2n1Cc1ccc(-c2ccccc2C#N)nc1"
measured_value = "155 to 156 °C"

[[record]]
compound = "CCOCCc1c(O)n2c3c(=O)n(C)c(=O)n(C)c3nc2n(Cc2ccccc2)c1=O"
measured_value = "156 to 158 °C"

[[record]]
compound = "Cc1nccn1-c1ccc(N)cc1C(F)(F)F"
measured_value = "117 to 119 °C"

[[record]]
compound = "O=C(Nc1ccc2cc(CN3CCCCC3)ccc2c1)c1ccc(-c2ccc(Cl)cc2)cc1"
measured_value = "220 to 222 °C"

[[record]]
compound = "CCN(CC)CCN(CC)C(=O)c1ccc(Nc2ccnc3c(C(F)(F)F)cccc23)cc1"
measured_value = "151 to 152 °C"

[[record]]
compound = "CC(O)COc1cccc(N)c1C(N)=O (stereo not given)"
measured_value = "115 to 118 °C"

[[record]]
compound = "C#CCOc1ccc(S(=O)(=O)C2(C(=O)O)CCN(Cc3ccc(Cl)cc3)CC2)cc1"
measured_value = "205 °C"

[[record]]
compound = "O=C(Nc1nccs1)c1nc(-c2ccc(C(F)(F)F)cc2)[nH]c1-c1ccc(F)cc1"
measured_value = "> 250 °C"

[[record]]
compound = "CC(C)(Oc1ccc(C#N)cc1Cl)c1ccccc1"
measured_value = "60 to 62 °C"

[[record]]
compound = "O=C(Nc1noc2ccccc12)N1CCN(c2nc(-c3ccccc3)no2)CC1"
measured_value = "215 to 216 °C"

[[record]]
compound = "Cc1cc(-c2ccccc2)c(=O)n2c1-c1sccc1CC2"
measured_value = "80.5 to 81 °C"

[[record]]
compound = "CN(C(=O)CCCOc1ccc2nc3n(c(=O)c2c1)CC(=O)N3)C1CCCCC1"
measured_value = "200 to 202 °C"

[[record]]
compound = "COC(=O)CCC/C(C)=C/c1cccc2c1NCCNC2=O"
measured_value = "175 to 176 °C"

[[record]]
compound = "CSCc1c(C(=O)NN2CCCCC2)nn(-c2ccc(Cl)cc2Cl)c1-c1ccc(Cl)cc1"
measured_value = "183 °C"

[[record]]
compound = "CN1CCN(c2nc(N)c3c(n2)CCCS3)CC1"
measured_value = "140 to 141 °C"

[[record]]
compound = "CSc1ncc(Cc2ccc(Cl)cc2)c(=O)[nH]1"
measured_value = "193 to 194 °C"


* * *

Measured property: melting point

[[record]]
molecule = "O=C(c1ncccc1OC1SCC(O)C(O)C1O)N1CCCCC1 (stereo not given)"
measured_property = "melting point"
measured_value = "81 to 92 °C"

[[record]]
molecule = "CCc1c(C=O)c2ccc(C(N)=O)cc2n1Cc1ccccc1Cl"
measured_property = "melting point"
measured_value = "260 to 261 °C"

[[record]]
molecule = "COc1ccc(N2CCN(C(=O)c3ccccc3C(c3ccc(O)cc3)c3ccc(O)cc3)CC2)cc1"
measured_property = "melting point"
measured_value = "208 to 210 °C"

[[record]]
molecule = "CNC(=O)[C@@H]1C[C@@H](OC)CN1C(=O)OCc1ccccc1"
measured_property = "melting point"
measured_value = "45 to 47 °C"

[[record]]
molecule = "CCCCC(=O)Nc1c(C(=O)c2cccc(Cl)c2)[nH]c2cc(Cl)ccc12"
measured_property = "melting point"
measured_value = "159 to 160 °C"

[[record]]
molecule = "C=C(OCCCC)c1ccc(NC(C)=O)nc1"
measured_property = "melting point"
measured_value = "55 to 58 °C"

[[record]]
molecule = "O=C(O)CCCOc1cc(-c2ccccc2)nc2ccccc12"
measured_property = "melting point"
measured_value = "264 °C"

[[record]]
molecule = "CCOC(=O)C1=Cc2cc(OC(F)(F)F)ccc2NC1C(F)(F)F (stereo not given)"
measured_property = "melting point"
measured_value = "123 to 125 °C"

[[record]]
molecule = "CCC(Oc1ccc(C(C)(C)CC)cc1C(C)(C)CC)C(=O)Nc1cc(OC(C)=O)c(C)c(Cl)c1O (stereo not given)"
measured_property = "melting point"
measured_value = "188 to 190 °C"

[[record]]
molecule = "COc1ccc(-c2c(CO)c(CO)c3n2-c2ccc(OC)cc2C3)cc1"
measured_property = "melting point"
measured_value = "186 to 187 °C"

